biological target: UniProt:O14965; experiment: AURKA degradation, Simple Western; type: cell-based; set-up: Representative Western blot showing levels of endogenous proteins MDR1, MYCN, AURKA, and CRBN in untreated cell lines; endogenous in cells; host or cells: NGP, IMR-32, SJNB-8, SK-N-BE(2)-C, SK-N-SH, SK-N-AS, SJNB-1, RPE, HEK293T; details: 24h, 1000nM;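 as to AURKA Degradation 24h @1000nM: measured in NGP neuroblastoma cells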
Hi! Just check whether AURKA Degradation 24h @1000nM is below 80. Below gives yes, equal or above gives no.

Examples with answers:
>  <MOLECULE>
O=C1CCC(Nc2ccc(N3CCN(C(=O)COCCNC(=O)[C@]4(Cc5cccc(Nc6nccs6)n5)CC[C@@H](Oc5cccc(Cl)c5F)CC4)CC3)cc2)C(=O)N1 (some centres unmarked) [PROTAC 15]

>  <CLASS NAME>
yes

$$$$
>  <MOLECULE>
O=C1CCC(Nc2ccc(N3CCN(C(=O)CNC(=O)[C@]4(Cc5cccc(Nc6nccs6)n5)CC[C@@H](Oc5cccc(Cl)c5F)CC4)CC3)cc2)C(=O)N1 (some centres unmarked) [PROTAC 14]

>  <CLASS NAME>
yes

$$$$
>  <MOLECULE>
O=C1CCC(N2C(=O)c3ccc(N4CCN(C(=O)COCCNC(=O)[C@]5(Cc6cccc(Nc7nccs7)n6)CC[C@@H](Oc6cccc(Cl)c6F)CC5)CC4)cc3C2=O)C(=O)N1 (some centres unmarked) [PROTAC 7]

>  <CLASS NAME>
yes

$$$$

*Q* Take the molecule Cc1cc(Nc2ccc(F)c(CC3(C(=O)N4CC(N5CCC(c6ccc(N7CCC(=O)NC7=O)cn6)CC5)C4)CCN(Cc4cccc(Cl)c4F)CC3)n2)n[nH]1 [PROTAC 35] and say whether its AURKA Degradation 24h @1000nM is less than 80.
*A* yes

*Q* Take the molecule Cc1cc(Nc2ccc(F)c(CC3(C(=O)N4CCC(F)(CN5CCC(c6ccc(N7CCC(=O)NC7=O)cn6)CC5)CC4)CCN(Cc4cccc(Cl)c4F)CC3)n2)n[nH]1 [PROTAC 37] and say whether its AURKA Degradation 24h @1000nM is less than 80.
*A* no

*Q* Take the molecule O=C1CCC(N2C(=O)c3ccc(N4CCN(C(=O)CNC(=O)[C@]5(Cc6cccc(Nc7nccs7)n6)CC[C@@H](Oc6cccc(Cl)c6F)CC5)CC4)cc3C2=O)C(=O)N1 (some centres unmarked) [PROTAC 5] and say whether its AURKA Degradation 24h @1000nM is less than 80.
*A* yes

*Q* Take the molecule O=C1CCC(N2C(=O)c3ccc(N4CCN(C(=O)COCCOCCNC(=O)[C@]5(Cc6cccc(Nc7nccs7)n6)CC[C@@H](Oc6cccc(Cl)c6F)CC5)CC4)cc3C2=O)C(=O)N1 (some centres unmarked) [PROTAC 9] and say whether its AURKA Degradation 24h @1000nM is less than 80.
*A* no

*Q* Take the molecule Cc1cc(Nc2ccc(F)c(CC3(C(=O)N4CCC(F)(CN5CCN(c6ccc(N7CCC(=O)NC7=O)cn6)CC5)CC4)CCN(Cc4cccc(Cl)c4F)CC3)n2)n[nH]1 [SK5527] and say whether its AURKA Degradation 24h @1000nM is less than 80.
*A* no

*Q* Take the molecule O=C1CCN(c2ccc(N3CCN(CC4(F)CCN(C(=O)[C@]5(Cc6cccc(Nc7nccs7)n6)CC[C@@H](Oc6cccc(Cl)c6F)CC5)CC4)CC3)nc2)C(=O)N1 [PROTAC 27] and say whether its AURKA Degradation 24h @1000nM is less than 80.
*A* no

*Q* Take the molecule O=C1CCC(N2C(=O)c3cccc(N4CCN(CCOCCOCCNC(=O)[C@]5(Cc6cccc(Nc7nccs7)n6)CC[C@@H](Oc6cccc(Cl)c6F)CC5)CC4)c3C2=O)C(=O)N1 (some centres unmarked) [PROTAC 1] and say whether its AURKA Degradation 24h @1000nM is less than 80.
*A* yes

----------
test: Metabolic stability in mouse hepatocytes (MH); assay type: in vitro ADME, CD-1 mouse; conditions: CD-1
VALUE KIND: hepatocyte CLint at 1 μM (µL/min/1e6 cells)
Answers are plain numbers, in µL/min/1e6 cells.

Recorded results for 2 compounds are shown here.
>  <COMPOUND>
O=C1CCN(c2ccc(N3CCN(CC4CCN(C(=O)[C@]5(Cc6cccc(Nc7nccs7)n6)CC[C@@H](Oc6cccc(Cl)c6F)CC5)C4)CC3)nc2)C(=O)N1 (stereo partly drawn) [PROTAC 25]

>  <UNIT TEXT>
µL/min/1e6 cells

>  <READOUT VALUE>
13.6

$$$$
>  <COMPOUND>
Cc1cc(Nc2ccc(F)c(CC3(C(=O)N4CCC(F)(CN5CCC(c6ccc(N7CCC(=O)NC7=O)cn6)CC5)CC4)CCN(Cc4cccc(Cl)c4F)CC3)n2)n[nH]1 [PROTAC 37]

>  <UNIT TEXT>
µL/min/1e6 cells

>  <READOUT VALUE>
4.5

$$$$

*Q* Which hepatocyte CLint at 1 μM reading was recorded for the compound O=C1CCN(c2ccc(C3CCN(C4CN(C(=O)[C@]5(Cc6cccc(Nc7nccs7)n6)CC[C@@H](Oc6cccc(Cl)c6F)CC5)C4)CC3)nc2)C(=O)N1 [PROTAC 28] ?
*A* 13

----------
assay: Metabolic stability in mouse liver microsomes (MLM); type: in vitro ADME, CD-1 mouse; settings: CD-1
Label scheme, based on microsomal CLint at 0.1 μM: label 0: < 400 µL/min/mg; label 1: ≥ 400 µL/min/mg and < 600 µL/min/mg; label 2: ≥ 600 µL/min/mg

Examples with answers:
>  <COMPOUND>
O=C1CCN(c2ccc(N3CCN(CC4CCN(C(=O)[C@]5(Cc6cccc(Nc7nccs7)n6)CC[C@@H](Oc6cccc(Cl)c6F)CC5)CC4)CC3)nc2)C(=O)N1

>  <CLASS NAME>
label 1

$$$$
>  <COMPOUND>
O=C1CCN(Cc2ccc(C3CCN(CC4CCN(C(=O)[C@]5(Cc6cccc(Nc7nccs7)n6)CC[C@@H](Oc6cccc(Cl)c6F)CC5)CC4)CC3)nc2)C(=O)N1

>  <CLASS NAME>
label 0

$$$$
>  <COMPOUND>
O=C1CCN(c2ccc(N3CCN(CC4(F)CCN(C(=O)[C@]5(Cc6cccc(Nc7nccs7)n6)CC[C@@H](Oc6cccc(Cl)c6F)CC5)CC4)CC3)nc2)C(=O)N1

>  <CLASS NAME>
label 2

$$$$
>  <COMPOUND>
O=C1CCN(c2ccc(N3CCN(CC4CCN(C(=O)[C@]5(Cc6cccc(Nc7nccs7)n6)CC[C@@H](Oc6cccc(Cl)c6F)CC5)C4)CC3)nc2)C(=O)N1 (stereo partly drawn)

>  <CLASS NAME>
label 1

$$$$
>  <COMPOUND>
O=C1CCN(c2ccc(C3CCN(C4CN(C(=O)[C@]5(Cc6cccc(Nc7nccs7)n6)CC[C@@H](Oc6cccc(Cl)c6F)CC5)C4)CC3)nc2)C(=O)N1

>  <CLASS NAME>
label 0

$$$$
>  <COMPOUND>
O=C1CCC(Nc2ccc(N3CCN(C4CN(C(=O)[C@]5(Cc6cccc(Nc7nccs7)n6)CC[C@@H](Oc6cccc(Cl)c6F)CC5)C4)CC3)nc2)C(=O)N1 (stereo partly drawn)

>  <CLASS NAME>
label 2

$$$$

*Q* Hey, which category is Cc1cc(Nc2ccc(F)c(CC3(C(=O)N4CC(N5CCN(c6ccc(NC7CCC(=O)NC7=O)cc6F)CC5)C4)CCN(Cc4cccc(Cl)c4F)CC3)n2)n[nH]1 (stereo not drawn) in, do you know?
*A* label 1

----------
biological target: AURKA (Homo sapiens); assay: AURKA degradation, Simple Western; format: cell-based; design: Representative Western blot showing levels of endogenous proteins MDR1, MYCN, AURKA, and CRBN in untreated cell lines; endogenous in cells; host or cells: NGP, IMR-32, SJNB-8, SK-N-BE(2)-C, SK-N-SH, SK-N-AS, SJNB-1, RPE, HEK293T; settings: NGP, 24 h treatment; read-out: AURKA DC50
Sequence (O14965 whole entry): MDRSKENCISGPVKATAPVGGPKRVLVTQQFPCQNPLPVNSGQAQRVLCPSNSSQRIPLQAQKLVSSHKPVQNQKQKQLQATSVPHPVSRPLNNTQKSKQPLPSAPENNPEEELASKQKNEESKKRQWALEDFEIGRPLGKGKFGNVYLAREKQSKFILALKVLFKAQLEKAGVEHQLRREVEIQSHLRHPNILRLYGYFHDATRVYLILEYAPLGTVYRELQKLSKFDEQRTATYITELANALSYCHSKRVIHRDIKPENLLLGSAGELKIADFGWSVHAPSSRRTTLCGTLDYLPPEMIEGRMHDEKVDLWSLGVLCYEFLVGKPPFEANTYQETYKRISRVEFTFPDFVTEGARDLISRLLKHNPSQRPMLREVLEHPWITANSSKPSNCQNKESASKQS
VALUE KIND: DC50 (nM)
Give bare numbers, in nM.

Recorded results for 2 compounds are shown here.
>  <COMPOUND>
O=C1CCC(Nc2ccc(N3CCN(C4CN(C(=O)[C@]5(Cc6cccc(Nc7nccs7)n6)CC[C@@H](Oc6cccc(Cl)c6F)CC5)C4)CC3)nc2)C(=O)N1 (some centres unmarked) [PROTAC 20]

>  <TARGET UNDER TEST>
AURKA (Homo sapiens)

>  <DC50 / nM>
2

$$$$
>  <COMPOUND>
O=C1CCC(N2C(=O)c3ccc(N4CCN(CCNC(=O)[C@]5(Cc6cccc(Nc7nccs7)n6)CC[C@@H](Oc6cccc(Cl)c6F)CC5)CC4)cc3C2=O)C(=O)N1 (some centres unmarked) [PROTAC 4]

>  <TARGET UNDER TEST>
AURKA (Homo sapiens)

>  <DC50 / nM>
5

$$$$

*Q* Observed DC50 on AURKA (Homo sapiens) for O=C1CCC(Nc2ccc(N3CCN(C4CN(C(=O)[C@]5(Cc6cccc(Nc7nccs7)n6)CC[C@@H](Oc6cccc(Cl)c6F)CC5)C4)CC3)c(F)c2)C(=O)N1 (some centres unmarked) [PROTAC 18] , please.
*A* 6
